assay: Selectivity index, ratio of IC50 for human HepG2 cells to MIC90 for Mycobacterium tuberculosis H37Rv; assay type: toxicity; conditions: read-out: Selectivity Index
VALUE KIND: selectivity ratio

Given item COc1ccc(CCNc2cc(-c3ccc(F)cc3)nc3ncnn23)cc1 , the value recorded as its selectivity ratio is > 21
